# STUDY TARGET: GDP-bound KRAS wild-type protein (Homo sapiens, UniProt P01116)
# Sequence (P01116 whole entry): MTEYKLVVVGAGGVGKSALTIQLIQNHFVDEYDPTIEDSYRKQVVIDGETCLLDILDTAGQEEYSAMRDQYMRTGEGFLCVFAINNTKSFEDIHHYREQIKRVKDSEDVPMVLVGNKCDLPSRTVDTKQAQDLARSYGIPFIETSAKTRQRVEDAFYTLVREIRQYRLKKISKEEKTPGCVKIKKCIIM
# ASSAY TEXT: Binding to KRAS by surface plasmon resonance (SPR), Single Cycle Kinetics
# STATED CONDITIONS: SPR Single Cycle Kinetics, GDP-bound KRAS wild-type protein, 1:1 binding model; read-out: KRAS KD
Where a SMILES comes first, the peptide text is derived from it. Bridges are numbered along the chain shown (N, C = ends). [ ]: non-standard residue; d: D form. hPhe(3-Cl-4-CF3) = N[C@@H](CCc1ccc(C(F)(F)F)c(Cl)c1)C(=O)O; NPrPhe(4-CF3) = CCCN[C@@H](Cc1ccc(C(F)(F)F)cc1)C(=O)O; NMeGly(cPent) = CN[C@H](C(=O)O)C1CCCC1; Pro(4,4-F2) = O=C(O)[C@@H]1CC(F)(F)CN1; NMeD = CN[C@@H](CC(=O)O)C(=O)O; NMeL = CN[C@@H](CC(C)C)C(=O)O; Aze = O=C(O)[C@@H]1CCN1; Ac4c = NC1(C(=O)O)CCC1; Sar = CNCC(=O)O
Listed compounds paired with reported pKd
In simple prose, pKd is minus the logarithm base ten of a concentration in moles per litre.

Consider the worked cases shown below.
>>> measured("CCCN1C(=O)[C@@H]2CCN2C(=O)CN(C)C(=O)[C@H]([C@@H](C)CC)NC(=O)[C@H](CC(C)C)N(C)C(=O)C[C@@H](C(=O)N(C)C)N(C)C(=O)[C@H](C2CCCC2)N(C)C(=O)C2(CCC2)NC(=O)[C@@H]2CC(F)(F)CN2C(=O)[C@H](CCc2ccc(C(F)(F)F)c(Cl)c2)NC(=O)CN(C)C(=O)[C@@H]1Cc1ccc(C(F)(F)F)cc1 [PP0443] ([NMeL]I[Sar][Aze][NPrPhe(4-CF3)][Sar][hPhe(3-Cl-4-CF3)][Pro(4,4-F2)][Ac4c][NMeGly(cPent)][NMeD]-NMe2; lactam N-11)")
10.57
>>> measured("CCO[C@@H]1C[C@H]2C(=O)NC3(CC(C)(C)C3)C(=O)N(C)[C@@H](C3CCCC3)C(=O)N(C)[C@H](C(=O)N(C)CC)CC(=O)N(C)[C@@H](COC)C(=O)N[C@@H]([C@@H](C)CC)C(=O)N(C)CC(=O)N(C)[C@H]3C/C=C\\CCN(C3=O)[C@@H](Cc3ccc(C(F)(F)F)cc3)C(=O)N(C)CC(=O)N[C@@H](CCc3ccc(C(F)(F)F)c(Cl)c3)C(=O)N2C1")
10.19
>>> measured("CCC[C@H]1C(=O)N[C@@H]([C@@H](C)CC)C(=O)N(C)CC(=O)N(C)[C@H]2C/C=C\\CCN(C2=O)[C@@H](Cc2ccc(C)cc2)C(=O)N(C)CC(=O)N[C@@H](CCc2ccc(Cl)c(Cl)c2)C(=O)N2C[C@H](OCC)C[C@H]2C(=O)NC2(CC(C)(C)C2)C(=O)N(C)[C@@H](CC2CCC2)C(=O)N(C)[C@H](C(=O)N(C)C)CC(=O)N1C")
9.25
>>> measured("CCC[C@H]1C(=O)N[C@@H](CC(C)C)C(=O)N2C[C@@H](OC)C[C@H]2C(=O)N(C)[C@H]2C/C=C\\CCN(C2=O)[C@@H](Cc2ccc(C)cc2)C(=O)N(C)CC(=O)N[C@@H](CCc2ccc(C(F)(F)F)c(Cl)c2)C(=O)N2C[C@H](OCC)C[C@H]2C(=O)NC2(CCC2)C(=O)N(C)[C@@H](C2CCCC2)C(=O)N(C)[C@H](C(=O)N(C)C)CC(=O)N1C")
8.22
>>> measured("CC[C@H](C)[C@@H]1NC(=O)[C@H](COC)N(C)C(=O)C[C@@H](C(=O)N2CCCCC2)N(C)C(=O)[C@H](C2CCCC2)N(C)C(=O)C2(CC(C)(C)C2)NC(=O)[C@@H]2C[C@@H](OC3CCC3)CN2C(=O)[C@H](CCc2cc(F)c(C(F)(F)F)c(F)c2)NC(=O)CN(C)C(=O)[C@H](Cc2ccc(C(F)(F)F)cc2)N2CC/C=C\\C[C@@H](C2=O)N(C)C(=O)CN(C)C1=O")
9.43

QUERY: So what's the measured pKd for this one? CCO[C@@H]1C[C@H]2C(=O)NC3(CCC3)C(=O)N(C)[C@@H](C3CCCC3)C(=O)N(CC)[C@H](C(=O)N(C)C)CC(=O)N(C)[C@@H](CC)C(=O)N[C@@H]([C@@H](C)CC)C(=O)N(C)CC(=O)N(C)[C@H]3CCCCN(C3=O)[C@@H](Cc3ccc(C(F)(F)F)cc3)C(=O)N(C)CC(=O)N[C@@H](CCc3cc(F)c(C(F)(F)F)c(F)c3)C(=O)N2C1
RESULT: 10.13

Where do the numbers come from? From patent US20240158446A1.
